# TARGET OF ASSAY: Beta Secretase enzyme (BACE) (Homo sapiens)
# Sequence (P56817 46-501): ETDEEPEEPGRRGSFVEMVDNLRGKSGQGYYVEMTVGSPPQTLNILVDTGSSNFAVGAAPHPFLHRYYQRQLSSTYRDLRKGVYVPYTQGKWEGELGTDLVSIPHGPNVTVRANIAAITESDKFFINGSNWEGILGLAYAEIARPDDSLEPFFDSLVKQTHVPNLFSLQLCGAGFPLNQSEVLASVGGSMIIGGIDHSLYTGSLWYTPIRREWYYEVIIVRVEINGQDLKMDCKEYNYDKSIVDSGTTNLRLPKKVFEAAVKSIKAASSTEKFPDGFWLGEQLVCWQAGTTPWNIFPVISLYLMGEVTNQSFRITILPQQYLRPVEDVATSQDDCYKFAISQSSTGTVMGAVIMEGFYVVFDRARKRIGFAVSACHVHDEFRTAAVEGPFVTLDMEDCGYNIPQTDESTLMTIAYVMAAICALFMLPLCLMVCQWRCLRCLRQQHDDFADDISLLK
# EXPERIMENTAL DETAILS: In vitro enzymatic BACE FRET (fluorescence resonance energy transfer) assay;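 further: fluorescence read after 1 h with 50 nM quenched peptide substrate spanning the BACE cleavage site, in pH 4.2 acetate buffer containing 10% DMSO and nonionic detergent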
# Type: biochemical
# CONDITION SET: BACE enzyme assay, IC50's in uM; read-out: BACE1 FRET assay
Kindly supply the reported IC50 values for the records listed here.
One number for each entry, in µM.

Solved cases (5 shown):
{"COMPOUND": "CCC(=O)N[C@@H](Cc1ccc2c(c1)OCO2)[C@H](O)CN[C@H]1CC2(CCC2)Oc2ncc(CC(C)(C)C)cc21", "IC50 [µM]": 0.012}
{"COMPOUND": "COCC(=O)N[C@@H](Cc1cc(-c2nccs2)cc(-c2nccs2)c1)[C@H](O)CN[C@H]1CC2(CCC2)Oc2ncc(CC(C)(C)C)cc21", "IC50 [µM]": 0.258}
{"COMPOUND": "C#Cc1cccc(C[C@H](NC(=O)CC)[C@H](O)CN[C@H]2CC3(CCC3)Oc3ncc(CC(C)(C)C)cc32)c1", "IC50 [µM]": 0.003}
{"COMPOUND": "COCC(=O)N[C@@H](Cc1cc(F)cc(-c2nccs2)c1)[C@H](O)CN[C@]1(C)CC2(CCC2)Oc2ncc(CC(C)(C)C)cc21", "IC50 [µM]": 1.21}
{"COMPOUND": "CO[C@H](C)C(=O)N[C@@H](Cc1cc(F)cc(-c2nccs2)c1)[C@H](O)CNC1CC2(CCC2)Oc2ncc(CC(C)(F)F)cc21 (some centres unmarked)", "IC50 [µM]": 0.021}

Please go through the list and note IC50 for each compound.
1. COCC(=O)N[C@@H](Cc1ccc2c(c1)OCO2)[C@H](O)CN[C@H]1CC2(CCC2)Oc2c(-c3ccccn3)cc(CC(C)C)cc21
2. CO[C@H](C)C(=O)N[C@@H](Cc1cc(F)cc(-c2nccs2)c1)[C@H](O)CN[C@H]1CC2(CCC2)Oc2ncc(CC(C)C)cc21
3. COCC(=O)N[C@@H](Cc1cccc([C@@H]2CCCO2)c1)[C@H](O)CN[C@H]1CC2(CCC2)Oc2ncc(CC(C)(C)C)cc21
4. CO[C@H](C)C(=O)N[C@@H](Cc1cccc(-c2nccs2)c1)[C@H](O)CN[C@H]1CC2(CCC2)Oc2ncc(CC(C)(C)F)cc21

1. 0.198
2. 1.62
3. 1.96
4. 0.024

Please go through the list and note IC50 for each compound.
1. COCC(=O)N[C@@H](Cc1cc(F)cc(-c2nccs2)c1)[C@H](O)CN[C@H]1CC2(CCC2)Oc2ccc(CC(C)C)cc21
2. CO[C@H](C)C(=O)N[C@@H](Cc1cc(F)cc(-c2nccs2)c1)[C@H](O)CN[C@H]1CC2(CCC2)Oc2ncc(C#CC3CC3)cc21
3. COC(OC)C(=O)N[C@@H](Cc1cccc(C(N)=O)c1)[C@H](O)CN[C@H]1CC2(CCC2)Oc2ncc(CC(C)(C)F)cc21
4. CO[C@H](C)C(=O)N[C@@H](Cc1cc(-c2nccs2)ccc1F)[C@H](O)CN[C@H]1CC2(CCC2)Oc2ncc(CC(C)(C)C)cc21
5. C#Cc1ccc(F)c(C[C@H](NC(=O)[C@@H](C)OC)[C@H](O)CN[C@H]2CC3(CCC3)Oc3ncc(CC(C)(C)C)cc32)c1

1. 0.005
2. 21
3. 0.04
4. 0.01
5. 0.006
